Where do the numbers come from? From PubChem BioAssay AID1963432.

Tested on: SYO-1 complex spheroid growth, percent test/control
Assay: Anticancer human tumor SYO-1 cell line growth inhibition [Asc]; active means viability on the fitted dose curve at most 10% of control; inactive means the rest;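 further: compound exposure lasted 7 days after spheroids grew 3 days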
Details: second compound 0.3 µM; first compound 0.316 µM
Text: Multicellular complex tumor spheroid response to apoptosis pathway targeting inhibitors Alrizomadlin, Pelcitoclax, and Dasminapant in combination with a variety of drugs and investigational agents in selected tumor cell lines […] Compounds. […] If the clinical Cmax for an agent had not been determined, the highest concentration tested was 10 microM. […]
Classes used: T (active), F (inactive)

[
  {
    "compound": "CCN1CCN(Cc2ccc(Nc3ncc(F)c(-c4cc(F)c5nc(C)n(C(C)C)c5c4)n3)nc2)CC1 + CCN1C(C(=O)NC23CCC(C(=O)O)(CC2)CC3)C(c2cccc(Cl)c2F)C2(C(=O)Nc3cc(Cl)ccc32)C12CCCCC2",
    "label": "T"
  },
  {
    "compound": "C=C(F)C(=O)N1CCN(c2nc(OCC3CCCN3C)nc3c2CCN(c2cccc4cccc(Cl)c24)C3)CC1CC#N (stereo not drawn) + CCN1C(C(=O)NC23CCC(C(=O)O)(CC2)CC3)C(c2cccc(Cl)c2F)C2(C(=O)Nc3cc(Cl)ccc32)C12CCCCC2",
    "label": "F"
  },
  {
    "compound": "O=C(c1cc(Cc2n[nH]c(=O)c3ccccc23)ccc1F)N1CCN(C(=O)C2CC2)CC1 + CCN1C(C(=O)NC23CCC(C(=O)O)(CC2)CC3)C(c2cccc(Cl)c2F)C2(C(=O)Nc3cc(Cl)ccc32)C12CCCCC2",
    "label": "T"
  },
  {
    "compound": "CNC(C)C(=O)NC1CN(S(=O)(=O)c2cccc(S(=O)(=O)N3CCC4CCC(C(=O)NC(c5ccccc5)c5ccccc5)N4C(=O)C(NC(=O)C(C)NC)C3)c2)CCC2CCC(C(=O)NC(c3ccccc3)c3ccccc3)N2C1=O (stereo not drawn) + CCN1C(C(=O)NC23CCC(C(=O)O)(CC2)CC3)C(c2cccc(Cl)c2F)C2(C(=O)Nc3cc(Cl)ccc32)C12CCCCC2",
    "label": "F"
  },
  {
    "compound": "C=CC(=O)N1CCN(c2nc(=O)n(-c3c(C)ccnc3C(C)C)c3nc(-c4c(O)cccc4F)c(F)cc23)C(C)C1 (stereo not drawn) + CCN1C(C(=O)NC23CCC(C(=O)O)(CC2)CC3)C(c2cccc(Cl)c2F)C2(C(=O)Nc3cc(Cl)ccc32)C12CCCCC2",
    "label": "F"
  },
  {
    "compound": "O=C(c1ccc(F)c(F)c1Nc1ccc(I)cc1F)N1CC(O)([C@@H]2CCCCN2)C1 + CCN1C(C(=O)NC23CCC(C(=O)O)(CC2)CC3)C(c2cccc(Cl)c2F)C2(C(=O)Nc3cc(Cl)ccc32)C12CCCCC2",
    "label": "F"
  },
  {
    "compound": "C#Cc1c(F)ccc2cc(O)cc(-c3ncc4c(N5CC6CCC(C5)N6)nc(OCC56CCCN5CC(F)C6)nc4c3F)c12 (stereo not drawn) + CCN1C(C(=O)NC23CCC(C(=O)O)(CC2)CC3)C(c2cccc(Cl)c2F)C2(C(=O)Nc3cc(Cl)ccc32)C12CCCCC2",
    "label": "F"
  },
  {
    "compound": "COc1c(OCCCN2CCOCC2)ccc2c3n(c(=NC(=O)c4cnc(N)nc4)nc12)CCN3 + CCN1C(C(=O)NC23CCC(C(=O)O)(CC2)CC3)C(c2cccc(Cl)c2F)C2(C(=O)Nc3cc(Cl)ccc32)C12CCCCC2",
    "label": "F"
  }
]
